Experiment: logP by HPLC on a C18 phase inversion column, EEC Directive 79/831 Annex V.A8, method a) (Agilent 1100, 10-95% acetonitrile in 4.25 min)
Type: physicochemical
Conditions: HPLC phase inversion (reversed-phase) C18 column, HPLC, method a); read-out: logP
Recorded endpoint: chromatographic logP

Give the measured chromatographic logP of Cn1nc(C(F)(F)C(F)(F)F)c(I)c1C(=O)Nc1ccc(Cl)c(C(=O)NC2CC2)c1 .
3.15

Give the measured chromatographic logP of Cn1nc(C(F)(F)C(F)(F)F)c(C(F)(F)F)c1C(=O)Nc1ccc(Cl)c(C(=O)O)c1 .
3.22

Give the measured chromatographic logP of C=Cc1c(C(F)(F)C(F)(F)F)nn(C)c1C(=O)Nc1ccc(Cl)c(C(=O)NC2CC2)c1 .
3.11

Now for a further compound.
Give the measured chromatographic logP of Cn1nc(C(F)(F)C(F)(F)F)c(C(F)(F)F)c1C(=O)Nc1ccc(Cl)c(C(=O)NC2CC2)c1 .
3.34

// provenance: patent US8946234B2
